# protocol_text: xn = mol fraction of the nth substance listed
# condition_parameters: 323.16 K; 35000 kPa; Liquid; Taylor dispersion method; x1 = 0
measure_name: binary diffusion coefficient
Show the value, then the unit it is measured in.

Examples from the recorded data:
compound	binary diffusion coefficient
COc1ccccc1Br [1-bromo-2-methoxybenzene] + O=C=O	7.98e-09 m2/s
C=Cc1cccc(C=C)c1 [1,3-diethenylbenzene] + O=C=O	8.54e-09 m2/s
C=CCc1ccccc1 [2-propenylbenzene] + O=C=O	9.01e-09 m2/s

From here, focus on the item given below.
Prompt: Which binary diffusion coefficient is reported for this compound? COc1ccccc1F [2-fluoroanisole] + O=C=O
Response: 8.65e-09 m2/s

Every entry's value here was drawn from the NIST ThermoML archive (doi:10.1016/j.fluid.2007.07.039).
